target-of-assay: ATX (Homo sapiens (Human), UniProt Q13822)
protocol-details: ATX enzyme inhibition assay (Amplex UltraRed/choline oxidase/HRP, 16:0 Lyso PC substrate)
Format: biochemical
condition-context: assay buffer pH 8.5; read-out: IC50 (nM) pH 8.5
property-name: IC50

A selection of reference data follows.
INSERT INTO measurements (compound, property_name, value) VALUES
  ('CN(c1nc(-c2ccc(F)cc2)c(C#N)s1)c1c2c(nc3ccc(N4CCN(S(C)(=O)=O)C[C@@H]4CO)cc13)CCC2', 'IC50', '112 nM'),
  ('C[C@H]1CN(CC(=O)N2CC(O)C2)CCN1c1cc(F)c2nc3c(c(N(C)c4nc(-c5ccc(F)cc5)c(C#N)s4)c2c1)CC[C@H]3O (single isomer, unassigned)', 'IC50', '18.9 nM');

Now consider a different compound.
Given the entry CN(c1nc(-c2ccc(F)cc2)c(C#N)s1)c1c2c(nc3c(F)cc(N4CC5(CN(C(=O)[C@H]6CCOC6)C5)C4)cc13)COC2 , report its measured IC50.
15.2 nM
